# System: PFSK-1 (malignant primitive neuroectodermal tumour)
# assayDetails: In vitro cytotoxicity, SRB assay, PFSK-1
# Assay type: cell-based
# conditions: selectivity coefficient vs normal BALB/3T3 cells
We begin with a simple list: items and their reported PFSK-1 SI.
I only need the number, thanks.

Past entries and their recorded results:
CC[C@@H](C(=O)[C@@H](C)[C@@H](O)[C@H](C)[C@@H]1O[C@@H]([C@@H](CC)C(=O)O)CC[C@@H]1C)[C@H]1O[C@]2(C=C[C@@H](NC(=O)NC(=O)C(Cl)(Cl)Cl)[C@]3(CC[C@@](C)([C@H]4CC[C@](O)(CC)[C@H](C)O4)O3)O2)[C@H](C)C[C@@H]1C ... 7.4
CC[C@@H](C(=O)[C@@H](C)[C@@H](O)[C@H](C)[C@@H]1O[C@@H]([C@@H](CC)C(=O)O)CC[C@@H]1C)[C@H]1O[C@]2(C=C[C@@H](NC(=S)Nc3ccc(C(F)(F)F)cc3)[C@]3(CC[C@@](C)([C@H]4CC[C@](O)(CC)[C@H](C)O4)O3)O2)[C@H](C)C[C@@H]1C ... 16.1
CCCNC(=S)N[C@@H]1C=C[C@]2(O[C@H]([C@@H](CC)C(=O)[C@@H](C)[C@@H](O)[C@H](C)[C@@H]3O[C@@H]([C@@H](CC)C(=O)O)CC[C@@H]3C)[C@@H](C)C[C@H]2C)O[C@@]12CC[C@@](C)([C@H]1CC[C@](O)(CC)[C@H](C)O1)O2 ... 2.4
CC[C@@H](C(=O)[C@@H](C)[C@@H](O)[C@H](C)[C@@H]1O[C@@H]([C@@H](CC)C(=O)O)CC[C@@H]1C)[C@H]1O[C@]2(C=C[C@@H](NC(=O)NCCc3ccccc3)[C@]3(CC[C@@](C)([C@H]4CC[C@](O)(CC)[C@H](C)O4)O3)O2)[C@H](C)C[C@@H]1C ... 4.0
CC[C@@H](C(=O)[C@@H](C)[C@@H](O)[C@H](C)[C@@H]1O[C@@H]([C@@H](CC)C(=O)O)CC[C@@H]1C)[C@H]1O[C@]2(C=C[C@@H](NC(=S)Nc3ccc(C)cc3)[C@]3(CC[C@@](C)([C@H]4CC[C@](O)(CC)[C@H](C)O4)O3)O2)[C@H](C)C[C@@H]1C ... 13.8

According to the records, this compound `CCNC(=O)N[C@@H]1C=C[C@]2(O[C@H]([C@@H](CC)C(=O)[C@@H](C)[C@@H](O)[C@H](C)[C@@H]3O[C@@H]([C@@H](CC)C(=O)O)CC[C@@H]3C)[C@@H](C)C[C@H]2C)O[C@@]12CC[C@@](C)([C@H]1CC[C@](O)(CC)[C@H](C)O1)O2` displays PFSK-1 SI of 6.9

According to the records, this compound `CCNC(=S)N[C@@H]1C=C[C@]2(O[C@H]([C@@H](CC)C(=O)[C@@H](C)[C@@H](O)[C@H](C)[C@@H]3O[C@@H]([C@@H](CC)C(=O)O)CC[C@@H]3C)[C@@H](C)C[C@H]2C)O[C@@]12CC[C@@](C)([C@H]1CC[C@](O)(CC)[C@H](C)O1)O2` displays PFSK-1 SI of 3.4

According to the records, this compound `CC[C@@H](C(=O)[C@@H](C)[C@@H](O)[C@H](C)[C@@H]1O[C@@H]([C@@H](CC)C(=O)O)CC[C@@H]1C)[C@H]1O[C@]2(C=C[C@@H](NC(=S)NCCCSC)[C@]3(CC[C@@](C)([C@H]4CC[C@](O)(CC)[C@H](C)O4)O3)O2)[C@H](C)C[C@@H]1C` displays PFSK-1 SI of 5.6

Values from patent US20240294541A1
